target: agonist-induced platelet aggregation (Homo sapiens, UniProt P05106+P08514); assay: Platelet Aggregation Assay in platelet-rich plasma (PRP); settings: without esterase
Sequence (P08514 with tags, fused parts or gaps): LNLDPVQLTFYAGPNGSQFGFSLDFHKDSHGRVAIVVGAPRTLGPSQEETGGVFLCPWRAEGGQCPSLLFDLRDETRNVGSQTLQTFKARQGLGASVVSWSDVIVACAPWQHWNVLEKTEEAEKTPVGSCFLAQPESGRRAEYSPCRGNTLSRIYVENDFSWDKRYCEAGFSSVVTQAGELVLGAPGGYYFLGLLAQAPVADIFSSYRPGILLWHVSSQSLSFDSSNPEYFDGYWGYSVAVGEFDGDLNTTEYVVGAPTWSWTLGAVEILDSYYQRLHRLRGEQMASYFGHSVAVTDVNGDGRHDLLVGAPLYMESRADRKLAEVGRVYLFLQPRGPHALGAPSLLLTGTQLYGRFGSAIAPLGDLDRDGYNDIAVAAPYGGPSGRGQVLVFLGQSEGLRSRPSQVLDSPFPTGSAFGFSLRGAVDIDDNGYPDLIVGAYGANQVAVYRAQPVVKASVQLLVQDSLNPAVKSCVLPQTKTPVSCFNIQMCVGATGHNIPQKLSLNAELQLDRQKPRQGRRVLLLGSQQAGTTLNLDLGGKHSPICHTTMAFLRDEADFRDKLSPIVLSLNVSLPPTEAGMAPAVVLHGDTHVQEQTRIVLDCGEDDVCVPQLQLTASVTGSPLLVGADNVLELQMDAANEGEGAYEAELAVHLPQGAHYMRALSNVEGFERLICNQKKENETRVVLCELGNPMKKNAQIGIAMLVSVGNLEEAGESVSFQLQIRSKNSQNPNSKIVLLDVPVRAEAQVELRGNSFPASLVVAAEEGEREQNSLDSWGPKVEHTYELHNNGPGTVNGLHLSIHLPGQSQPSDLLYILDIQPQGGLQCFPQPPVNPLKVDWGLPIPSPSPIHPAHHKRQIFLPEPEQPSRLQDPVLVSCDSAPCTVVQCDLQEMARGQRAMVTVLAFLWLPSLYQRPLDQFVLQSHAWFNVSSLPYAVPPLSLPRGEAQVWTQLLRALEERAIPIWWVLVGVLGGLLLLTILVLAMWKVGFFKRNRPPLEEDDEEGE
Sequence (P05106 27-788): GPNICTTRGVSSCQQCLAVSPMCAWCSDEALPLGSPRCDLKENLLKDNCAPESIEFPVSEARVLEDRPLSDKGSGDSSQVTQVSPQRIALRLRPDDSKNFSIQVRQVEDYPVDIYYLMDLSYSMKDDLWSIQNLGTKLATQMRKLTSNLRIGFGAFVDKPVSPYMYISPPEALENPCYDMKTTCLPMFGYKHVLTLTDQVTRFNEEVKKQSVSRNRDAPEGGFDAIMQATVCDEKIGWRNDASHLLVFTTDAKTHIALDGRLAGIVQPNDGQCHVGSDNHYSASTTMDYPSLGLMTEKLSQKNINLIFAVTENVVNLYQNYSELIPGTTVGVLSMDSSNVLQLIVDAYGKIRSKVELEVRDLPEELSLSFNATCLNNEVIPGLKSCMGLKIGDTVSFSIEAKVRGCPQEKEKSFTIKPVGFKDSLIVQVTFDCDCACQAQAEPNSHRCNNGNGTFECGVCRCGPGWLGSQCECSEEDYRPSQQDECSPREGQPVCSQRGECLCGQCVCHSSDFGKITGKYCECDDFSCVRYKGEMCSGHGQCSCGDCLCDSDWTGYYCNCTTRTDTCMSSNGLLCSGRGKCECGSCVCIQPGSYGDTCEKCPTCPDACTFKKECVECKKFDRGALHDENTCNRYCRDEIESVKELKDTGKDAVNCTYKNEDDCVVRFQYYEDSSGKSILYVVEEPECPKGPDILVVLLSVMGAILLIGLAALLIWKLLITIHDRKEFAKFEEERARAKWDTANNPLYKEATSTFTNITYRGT

Compound | IC50
O=C(O)CCCN1C(=O)CC2(CC(CCCC3CCNCC3)=NO2)C1=O (stereo not shown) | 10 to 50 µM

* * *

target: human platelet rich plasma (Homo sapiens, UniProt P05106+P08514); experiment: Platelet Aggregation Assay, ester prodrugs preincubated with porcine liver esterase; conditions: platelet rich plasma (PRP)
Observable: IC50

Compound | Observable | Observed Value
COC(=O)C(CNC(=O)CC1CC(c2ccc(C(=N)N)cc2)=NO1)NC(=O)c1ccc(-c2ccccc2)cc1 (centres unmarked) [Example 523] | IC50 | < 10 µM
COC(=O)C(CNC(=O)CC1CC(c2ccc(C(=N)N)cc2)=NO1)NS(=O)(=O)c1ccc(-c2ccccc2)cc1 (centres unmarked) [Example 546] | IC50 | < 10 µM
